B1: KLHL13 (parent)
chain: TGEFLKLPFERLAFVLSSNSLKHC

Variants of: B1
assay-remarks: protein stability index of a GFP-peptide fusion (GPS, HEK-293T) (PSI 1-6); higher = more stable;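 further: lentivirally expressed fusions sorted by FACS into six bins by GFP to DsRed ratio, PSI derived from sequencing read proportions per bin multiplied by bin number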
condition: c terminus: a fixed tail appended
The entries below come with measured protein stability index values attached.
assay-readout: protein stability index

[[record]]
polymer_sequence = "TGEFHKLPFERLAFVLSSNSLKHC [L5H]"
result_value = 1.78

[[record]]
polymer_sequence = "TGEFLKLPFERLMFVLSSNSLKHC [A13M]"
result_value = 3.12

[[record]]
polymer_sequence = "TGEFLKLPFERLAFVPSSNSLKHC [L16P]"
result_value = 2.33

[[record]]
polymer_sequence = "TGEFLKLPFERLAFVLSSNSAKHC [L21A]"
result_value = 2.92

[[record]]
polymer_sequence = "TGPFLKLPFERLAFVLSSNSLKHC [E3P]"
result_value = 2.66

[[record]]
polymer_sequence = "TGEFLKLPPERLAFVLSSNSLKHC [F9P]"
result_value = 2.04

[[record]]
polymer_sequence = "TGEFLKTPFERLAFVLSSNSLKHC [L7T]"
result_value = 3.88

[[record]]
polymer_sequence = "TGEFLKLPFERTAFVLSSNSLKHC [L12T]"
result_value = 1.53

[[record]]
polymer_sequence = "TGEWLKLPFERLAFVLSSNSLKHC [F4W]"
result_value = 2.03

[[record]]
polymer_sequence = "TGEFLKLPFERLAFVLSSESLKHC [N19E]"
result_value = 2.44

[[record]]
polymer_sequence = "TGEFLKLPFERLANVLSSNSLKHC [F14N]"
result_value = 2.33

[[record]]
polymer_sequence = "TGEFLKLPFERLAFQLSSNSLKHC [V15Q]"
result_value = 2.31

[[record]]
polymer_sequence = "TGEFLKLPFERLAFVLSENSLKHC [S18E]"
result_value = 2.37

[[record]]
polymer_sequence = "TGEFLKLPFERLAYVLSSNSLKHC [F14Y]"
result_value = 2.36

[[record]]
polymer_sequence = "TGEFLKLPFERAAFVLSSNSLKHC [L12A]"
result_value = 1.99

[[record]]
polymer_sequence = "TGEFLKLPFERLAFVLSSNSLKHE [C24E]"
result_value = 1.81

[[record]]
polymer_sequence = "TGEFKKLPFERLAFVLSSNSLKHC [L5K]"
result_value = 1.85

[[record]]
polymer_sequence = "TGEFLKLPFERLAFVLSSNSLKWC [H23W]"
result_value = 1.88

[[record]]
polymer_sequence = "TGEFLKLPFERLAFVLDSNSLKHC [S17D]"
result_value = 1.06

[[record]]
polymer_sequence = "TGEFLKLPFERLAEVLSSNSLKHC [F14E]"
result_value = 2.33

[[record]]
polymer_sequence = "TGEFLKLPRERLAFVLSSNSLKHC [F9R]"
result_value = 1.65


// data source = the supplement of paper PMC10567573
